Measured values drawn from patent US20240391862A1 for this set.

System: KCHSC
ASSAY NOTES: Post-emergence herbicidal effect, greenhouse pot test
Type: in vivo
SETUP CONDITIONS: 80 g/ha
Measured Post-emergence effect against KCHSC in % of individual entries
PROPERTY NAME: Post-emergence effect against KCHSC in % (%)

[
  {
    "MOLECULE": "COC(Oc1nn(-c2ncccc2F)c(-c2cncc(F)c2)c1C1CC1)C(=O)O (centres unmarked) [Example I-84]",
    "TESTED SYSTEM": "KCHSC",
    "PROPERTY NAME": "Post-emergence effect against KCHSC in %",
    "READING UNIT": "%",
    "EXPERIMENTAL RESULT": 90
  },
  {
    "MOLECULE": "COC(=O)CCOC(=O)C(OC)Oc1nn(-c2ccccc2F)c(-c2ccc(F)nc2)c1C(F)(F)F (centres unmarked)",
    "TESTED SYSTEM": "KCHSC",
    "PROPERTY NAME": "Post-emergence effect against KCHSC in %",
    "READING UNIT": "%",
    "EXPERIMENTAL RESULT": 90
  },
  {
    "MOLECULE": "COC(=O)CCOC(=O)C(OC)Oc1nn(-c2ncccc2F)c(-c2cncc(F)c2)c1C1CC1 (single isomer, unassigned) [Example I-77]",
    "TESTED SYSTEM": "KCHSC",
    "PROPERTY NAME": "Post-emergence effect against KCHSC in %",
    "READING UNIT": "%",
    "EXPERIMENTAL RESULT": 90
  },
  {
    "MOLECULE": "COC(=O)C(OC)Oc1nn(-c2ncccc2F)c(-c2ccc(F)nc2)c1C1CC1 (centres unmarked)",
    "TESTED SYSTEM": "KCHSC",
    "PROPERTY NAME": "Post-emergence effect against KCHSC in %",
    "READING UNIT": "%",
    "EXPERIMENTAL RESULT": 90
  },
  {
    "MOLECULE": "COC(Oc1nn(-c2ncccc2F)c(-c2cncc(F)c2)c1C1CC1)C(=O)O (centres unmarked) [Example I-85]",
    "TESTED SYSTEM": "KCHSC",
    "PROPERTY NAME": "Post-emergence effect against KCHSC in %",
    "READING UNIT": "%",
    "EXPERIMENTAL RESULT": 90
  },
  {
    "MOLECULE": "COC(=O)CCOC(=O)C(OC)Oc1nn(-c2ncccc2F)c(-c2ccc(F)nc2)c1C1CC1 (single isomer, unassigned) [Example I-80]",
    "TESTED SYSTEM": "KCHSC",
    "PROPERTY NAME": "Post-emergence effect against KCHSC in %",
    "READING UNIT": "%",
    "EXPERIMENTAL RESULT": 90
  },
  {
    "MOLECULE": "COC(=O)C(OC)Oc1nn(-c2ncccc2F)c(-c2cncc(F)c2)c1C1CC1 (centres unmarked) [Example I-86]",
    "TESTED SYSTEM": "KCHSC",
    "PROPERTY NAME": "Post-emergence effect against KCHSC in %",
    "READING UNIT": "%",
    "EXPERIMENTAL RESULT": 90
  },
  {
    "MOLECULE": "COC(=O)CCOC(=O)C(OC)Oc1nn(-c2ncccc2F)c(-c2cncc(F)c2)c1C1CC1 (centres unmarked) [Example I-82]",
    "TESTED SYSTEM": "KCHSC",
    "PROPERTY NAME": "Post-emergence effect against KCHSC in %",
    "READING UNIT": "%",
    "EXPERIMENTAL RESULT": 90
  },
  {
    "MOLECULE": "COC(=O)CCOC(=O)C(OC)Oc1nn(-c2ncccc2F)c(-c2ccc(F)nc2)c1C1CC1 (single isomer, unassigned) [Example I-88]",
    "TESTED SYSTEM": "KCHSC",
    "PROPERTY NAME": "Post-emergence effect against KCHSC in %",
    "READING UNIT": "%",
    "EXPERIMENTAL RESULT": 80
  },
  {
    "MOLECULE": "COC(=O)C(OC)Oc1nn(-c2ncccc2F)c(-c2cncc(F)c2)c1C1CC1 (centres unmarked) [Example I-87]",
    "TESTED SYSTEM": "KCHSC",
    "PROPERTY NAME": "Post-emergence effect against KCHSC in %",
    "READING UNIT": "%",
    "EXPERIMENTAL RESULT": 90
  },
  {
    "MOLECULE": "COC(=O)CCOC(=O)C(OC)Oc1nn(-c2ccccc2F)c(-c2ccc(F)nc2)c1C1CC1 (centres unmarked)",
    "TESTED SYSTEM": "KCHSC",
    "PROPERTY NAME": "Post-emergence effect against KCHSC in %",
    "READING UNIT": "%",
    "EXPERIMENTAL RESULT": 80
  }
]

---

Documented Post-emergence effect against MATIN in % across a set of compounds
Tested on: MATIN
ASSAY NOTES: Post-emergence herbicidal effect, greenhouse pot test
Type: in vivo, Tripleurospermum inodorum
SETUP CONDITIONS: 80 g/ha
PROPERTY NAME: Post-emergence effect against MATIN in % (%)

[
  {
    "COMPOUND": "COC(=O)CCOC(=O)C(OC)Oc1nn(-c2ncccc2F)c(-c2cncc(F)c2)c1C1CC1 (single isomer, unassigned) [Example I-77]",
    "EXPERIMENTAL RESULT": 80
  },
  {
    "COMPOUND": "COC(=O)CCOC(=O)C(OC)Oc1nn(-c2ccccc2F)c(-c2ccc(F)nc2)c1C1CC1 (stereo not shown) [Example I-61]",
    "EXPERIMENTAL RESULT": 80
  },
  {
    "COMPOUND": "COC(=O)CCOC(=O)C(OC)Oc1nn(-c2cc(F)ccc2F)c(-c2cncc(F)c2)c1C1CC1 (single isomer, unassigned) [Example I-78]",
    "EXPERIMENTAL RESULT": 90
  },
  {
    "COMPOUND": "COC(=O)C(OC)Oc1nn(-c2cccc(Cl)c2F)c(-c2cncc(F)c2)c1Br (stereo not shown)",
    "EXPERIMENTAL RESULT": 80
  },
  {
    "COMPOUND": "COC(=O)C(OC)Oc1nn(-c2ncccc2F)c(-c2cncc(F)c2)c1C1CC1 (stereo not shown)",
    "EXPERIMENTAL RESULT": 80
  },
  {
    "COMPOUND": "COC(=O)CCOC(=O)C(OC)Oc1nn(-c2cc(F)ccc2F)c(-c2cncc(F)c2)c1C1CC1 (single isomer, unassigned) [Example I-79]",
    "EXPERIMENTAL RESULT": 80
  },
  {
    "COMPOUND": "COC(=O)CCOC(=O)C(OC)Oc1nn(-c2cc(F)ccc2F)c(-c2cncc(F)c2)c1C1CC1 (stereo not shown) [Example I-83]",
    "EXPERIMENTAL RESULT": 90
  }
]

---

Test system: ORYSA
ASSAY NOTES: Post-emergence herbicidal effect and crop plant compatibility, greenhouse pot test
Type: in vivo, Oryza sativa
SETUP CONDITIONS: 20 g/ha, visual rating about 3 weeks after treatment, crop plant
From the text: […]
PROPERTY NAME: Post-emergence effect against ORYSA

[
  {
    "MOLECULE": "COC(=O)C(OC)Oc1nn(-c2cccc(Cl)c2F)c(-c2cncc(F)c2)c1Br (centres unmarked)",
    "TESTED SYSTEM": "ORYSA",
    "EXPERIMENTAL RESULT": "0%"
  },
  {
    "MOLECULE": "COC(=O)C(C)COC(=O)C(OC)Oc1nn(-c2ccccc2F)c(-c2ccc(F)nc2)c1Br (racemic)",
    "TESTED SYSTEM": "ORYSA",
    "EXPERIMENTAL RESULT": "10%"
  },
  {
    "MOLECULE": "COC(=O)C(OC)Oc1nn(-c2cccc(Cl)c2F)c(-c2cncc(F)c2)c1I (centres unmarked)",
    "TESTED SYSTEM": "ORYSA",
    "EXPERIMENTAL RESULT": "0%"
  },
  {
    "MOLECULE": "COC(=O)CCOC(=O)C(OC)Oc1nn(-c2ccccc2F)c(-c2ccc(F)nc2)c1Br (single isomer, unassigned) [Example I-13]",
    "TESTED SYSTEM": "ORYSA",
    "EXPERIMENTAL RESULT": "10%"
  },
  {
    "MOLECULE": "COC(=O)CCOC(=O)C(OC)Oc1nn(-c2ccccc2F)c(-c2ccc(F)nc2)c1Br (single isomer, unassigned) [Example I-20]",
    "TESTED SYSTEM": "ORYSA",
    "EXPERIMENTAL RESULT": "0%"
  }
]
